- target_under_test: T1, SAP (recombinant full-length human SAP) (human, UniProt O60880 1-128)
- T1 construct: SAP, human, full length; also called SH2D1A; source: E. coli BL21(DE3)pLysS, purified (Co2+ or Ni2+ column, size exclusion chromatography)
- T1 sequence (looked up): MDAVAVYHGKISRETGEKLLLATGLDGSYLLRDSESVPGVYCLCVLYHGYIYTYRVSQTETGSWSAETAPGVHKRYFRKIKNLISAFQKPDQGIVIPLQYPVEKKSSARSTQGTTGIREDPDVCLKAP
- test_description: SPR; biotinylated phosphopeptides immobilised on streptavidin chip (about 25 RU single motifs); soluble recombinant protein injected in two-fold dilutions; 37°C; HBS-EP (10 mM HEPES pH 7.4, 150 mM NaCl, 3.4 mM EDTA, 0.005% P20); equilibrium binding, one-site model; proteins purified on the same day as SPR (Tables 1 and 6)
- assay_conditions: both partners purified
Non-standard residues stand in square brackets, D forms with d. No end group written: not given here. *: point of attachment. Biotin = O=C1N[C@H]2[C@H](CS[C@H]2CCCCC(=O)*)N1; pY = N[C@@H](Cc1ccc(OP(=O)(O)O)cc1)C(=O)O
outcome_measure: Kd (nM)

| binder | reported_measurement |
| --- | --- |
| Biotin-PANTV[pY]STVEI (CRACC (SLAMF7), human, cytoplasmic ITSM2; also called SLAMF7 ITSM2; source: synthetic peptide (Peptide Protein Research Ltd)) [CRACC ITSM2 phosphopeptide (Biotin-PANTVpYSTVEI)] | 440 |
